Value source: the RNAGym collection of RNA variant scans (doi:10.7554/elife.80360)

B1: HDV Ribozyme (parent)
chain: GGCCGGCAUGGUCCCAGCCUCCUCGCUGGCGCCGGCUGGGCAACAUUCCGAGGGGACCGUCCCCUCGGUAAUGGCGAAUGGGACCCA

Variants of: B1
Method: self-cleavage, relative activity (ratio to wild type); higher = more cleavage; co-transcriptional
Note to self: values exactly at 0.3 are t. So self-cleavage at or above 0.3 is t, below is f.

{"Sequence Text": "GGCCGGCAUUGUCCCAGCCUCCUCGCUGGCGCCGGCUGGGCAACAUCCCGAGGGGACCGUCCCCUCGGUAAUGGCGAAUGGGACCCA [G10U U47C]", "Class Name": "t"}
{"Sequence Text": "GGCCGGCAUGGUCCCAGCCUCCUCGCUGGCGCCGCCUGGGCAACAUUCCGAGGGGACCGUCCCCUCGGUAAUGGCGAAUGGGAUCCA [G35C C84U]", "Class Name": "f"}
{"Sequence Text": "GGCCGGCAUGGUCCCAGCCUCCUCGCUGGCGCCGGCUGGGCAACAUCCCGAGGGGACCGUACCCUCGGUAAUGGCGAAUGGGACCCA [U47C C61A]", "Class Name": "t"}
{"Sequence Text": "GGCCGUCAUGGUCCCAGCCUCCUCGCUGGCGCCGGUUGGGCAACAUUCCGAGGGGACCGUCCCCUCGGUAAUGGCGAAUGGGACCCA [G6U C36U]", "Class Name": "f"}
{"Sequence Text": "GGCCGGCAUGGUCCCAGCCUCCUCGCUGGCGCCGGCUGGGCAACAUUCCGAGGGGGCCGUCCCCUCGGUAAUGGCGAAUGGGCCCCA [A56G A83C]", "Class Name": "f"}
{"Sequence Text": "GGCCGACAUGGUCCCAGCCUCCUCGCUGGCGCCGGCUGGGCAACAUUCCGAGGGGACGGUCCCCUCGGUAAUGGCGAAUGGGACCCA [G6A C58G]", "Class Name": "t"}
{"Sequence Text": "GGCCGGCACGGUCCCAACCUCCUCGCUGGCGCCGGCUGGGCAACAUUCCGAGGGGACCGUCCCCUCGGUAAUGGCGAAUGGGACCCA [U9C G17A]", "Class Name": "t"}
{"Sequence Text": "GGCCGGCAUGGUCCCAGCCUCCUCGCUGGCGCCGGCUGGGCAACAUUCCGAUGGGACCGUCUCCUCGGUAAUGGCGAAUGGGACCCA [G52U C62U]", "Class Name": "t"}
{"Sequence Text": "GGGCGGCAUGGUCCCAGCCUCCUCGCUGGCGCGGGCUGGGCAACAUUCCGAGGGGACCGUCCCCUCGGUAAUGGCGAAUGGGACCCA [C3G C33G]", "Class Name": "f"}
{"Sequence Text": "GGCCGGCAAGGUCCCAGCCUCCUCGCUGGCGCCGGCUGGUCAACAUUCCGAGGGGACCGUCCCCUCGGUAAUGGCGAAUGGGACCCA [U9A G40U]", "Class Name": "t"}
{"Sequence Text": "GGCCGGCAUGGUCCCAGCCUCCUCGCUGGCGCCGGCUGGGAAACAUUCCAAGGGGACCGUCCCCUCGGUAAUGGCGAAUGGGACCCA [C41A G50A]", "Class Name": "t"}
{"Sequence Text": "GGCCGGCAUGGUCCCAGCCUCCUCGCUGGCGCCGGCUGGGCAAAAUUCCGAGGGGACCGUCCCCUCGGUAAUGGCGAAUGGGCCCCA [C44A A83C]", "Class Name": "f"}
{"Sequence Text": "GGCCGGCAUGGUCCCAGCCUCCUCGCUGGCGCCGGCUGGGCAACAUUCCGAGGGGACCGUCCCCUCGGUAAAGGCGAAUGUGACCCA [U72A G81U]", "Class Name": "f"}
{"Sequence Text": "GGCCGGCAUGGUCCCAGCCUCCGCGCUGGCGCCGGCUGGGCAACAUUCCGAGGGGACCGUCACCUCGGUAAUGGCGAAUGGGACCCA [U23G C62A]", "Class Name": "t"}
{"Sequence Text": "GGGCGGCAUGGUCCCAGCCUCCUCGCUGGCGCCGGCUGGGCAACGUUCCGAGGGGACCGUCCCCUCGGUAAUGGCGAAUGGGACCCA [C3G A45G]", "Class Name": "t"}
{"Sequence Text": "GGCCGGCAUGGUCCCAGCCUCCUCGCUGGCGCCGGCUAGGCAACAUUCCGAGGGGACCGUCCCCUGGGUAAUGGCGAAUGGGACCCA [G38A C66G]", "Class Name": "f"}
{"Sequence Text": "GGCCGGCAUGGUCCCAGCCUCCUCGCUGGCGCCGGCGGGGCAACAUUCCGAGGGGACCGUCCCCUCGGUAAUGGCGAACGGGACCCA [U37G U79C]", "Class Name": "f"}
{"Sequence Text": "GGCCGGCAUGGUCCCAGUCUCCUCGCUGGCGCCGUCUGGGCAACAUUCCGAGGGGACCGUCCCCUCGGUAAUGGCGAAUGGGACCCA [C18U G35U]", "Class Name": "f"}
{"Sequence Text": "GGCCAGCAUGGUCCCAGCCUCCCCGCUGGCGCCGGCUGGGCAACAUUCCGAGGGGACCGUCCCCUCGGUAAUGGCGAAUGGGACCCA [G5A U23C]", "Class Name": "f"}
{"Sequence Text": "GGCCGGCAUGGUCCCAGCCUCCUCGCUGGCGGCGGCUGGGCAACAUUCCGAGGGGACCGUCCCCUCGGUAAUGGCGAAUGGGAGCCA [C32G C84G]", "Class Name": "f"}
{"Sequence Text": "GGCCGGCAUGGUCCCAGCCUCCUCGCUGGCGCCGGCUGGGCAACAUUCCGAGGGGACCGUCCACUCCGUAAUGGCGAAUGGGACCCA [C63A G67C]", "Class Name": "t"}
{"Sequence Text": "GGCCGGCAUGGUCCCAGCCGCCUCGCUGGCGCCGGCUGGGCAACAUUCCGAGGGGCCCGUCCCCUCGGUAAUGGCGAAUGGGACCCA [U20G A56C]", "Class Name": "f"}
